System: MALME-3M melanoma
procedure-details: NCI tumour cell line growth inhibition, 48 h; in the data active = GI50 below about 0.43 µM; inactive = the rest
Hello, when you answer, please use one of the following outcomes: active, inactive

# count of solved cases: 5
Cc1nc2sc(C(=O)Nc3cccc(Cl)c3C)c(N)c2cc1C(O)c1ccccc1 (stereo unspecified) = active
CCOC(=O)CC1C(CNC(=O)NC)OC(n2cnc3c(NC(=O)Nc4ccccc4)ncnc32)C1O[Si](C)(C)C(C)(C)C (stereo unspecified) = inactive
COC(=O)C[C@@H]1CC=CC(=O)/C1=C(O)/C=C/c1ccccc1 = inactive
COC(=O)[C@]12CC[C@@H](C)[C@H](C)[C@@H]1C1=CC[C@@H]3[C@@]4(C)C(C=O)=C[C@@](C)(COC(=O)c5ccco5)C4=CC[C@@]3(C)[C@]1(C)CC2 = active
NC1=CC(=O)C(=O)c2ccccc21 = inactive

Now consider a different molecule.
Entry CCN1Cc2c(/C=C/c3ccccc3)nc3ccc(OC)cc3c2N(c2cccc(Cl)c2)C1 : call = ?
inactive

* * *

Answer each item with its documented TGI.
Test system: NCI-H23 lung
procedure-details: NCI tumour cell line growth inhibition, 48 h

Some entries whose results are on file:
C[C@@H]1C[C@@H]2C(=O)N(c3ccccc3)C(=O)[C@@H]2c2[nH]c3ccc(Br)cc3c21 = > 100 µM
CC(=O)NC(CCCCN(Cc1ccccc1)C(=O)N(C)N=O)C(=O)NCc1ccccc1 (centres undefined) = > 100 µM
CCCCSCCC(N)P(=O)(O)O (centres undefined) = > 100 µM
CCOC(=O)CC1C(CNC(=O)NC)OC(n2cnc3c(NC(=O)Nc4ccccc4)ncnc32)C1O[Si](C)(C)C(C)(C)C (centres undefined) = > 100 µM

Please go through the list and note TGI for each molecule.
1. CC(C)C1COC(C(C)(C)C2=N[C@@H](C(C)C)CO2)=N1 (some centres undefined)
2. COc1ccc(C2S/C(=C\c3ccc([N+](=O)[O-])cc3)C(=O)N2NC(=O)Cc2ccccc2)cc1 (centres undefined)
3. O=C(CC(=O)c1cccc2ccccc12)C(=O)Nc1nccs1

> 100 µM
> 100 µM
> 100 µM

Please go through the list and note TGI for each molecule.
1. CCSc1nnc(-c2ccc3ccccc3c2O)n1-c1ccccc1
2. O=c1oc2ccccc2c(O)c1Cc1ccccc1Cc1c(O)c2ccccc2oc1=O

["> 100 µM", "> 100 µM"]

* * *

Tested on: KM12 colon
procedure-details: NCI tumour cell line growth inhibition, 48 h; in the data active = GI50 below about 0.43 µM; inactive = the rest
Hello, when you answer, please use one of the following outcomes: 1 (active), -1 (inactive)

# count of solved cases: 3
Cc1cc(O)cc(-c2nn(C)cc2-c2cc(N3CCOCC3)nc(-c3cccnc3)n2)c1 = -1
COc1ccc(C#CC2=C(Br)C(=O)OC2)cc1 = -1
COc1ccc(/C=C\c2cc(OC)c(OC)c(OC)c2)cc1N/C=C\C(=O)c1c[nH]c2ccccc12 = 1

Entry COC(=O)[C@]12CC[C@@H](C)[C@H](C)[C@@H]1C1=CC[C@@H]3[C@@]4(C)C(C=O)=C[C@@](C)(COC(=O)c5ccco5)C4=CC[C@@]3(C)[C@]1(C)CC2 : call = ?
-1

Entry CCN(CC)CCC(CNc1c(C)cnc2cc(Cl)ccc12)c1ccc(Cl)c(Cl)c1 (configuration not stated) : call = ?
-1

Entry O=C1c2ccccc2-c2c1c1ccc([N+](=O)[O-])cc1c(=O)n2CCN1CCOCC1 : call = ?
-1

Entry CCCCc1n(Cc2ccc3ccccc3n2)cc[n+]1Cc1ccc2ccccc2c1 : call = ?
-1

Entry Nc1n[nH]c2cc(F)c([C@@H]3Nc4c(F)cc5[nH]ncc5c4[C@H]4C5CCC(C5)[C@@H]34)cc12 (some centres not stated) : call = ?
1

Entry N#Cc1cc2c(=S)[nH]c(=S)[nH]c2nc1SCc1ccccc1 : call = ?
-1

Entry CC1(C)CC(C(=O)OCCCCCCCCCCC[P+](c2ccccc2)(c2ccccc2)c2ccccc2)C(C)(C)N1O (configuration not stated) : call = ?
1

Entry COc1ccc(OC)c(-c2nc3sc(C)cn3c2/C=C2\C(=O)N(C)c3ccccc32)c1 : call = ?
-1

Entry CCOC(=O)CC1C(CNC(=O)NC)OC(n2cnc3c(NC(=O)Nc4ccccc4)ncnc32)C1O[Si](C)(C)C(C)(C)C (configuration not stated) : call = ?
-1
